test: Human HepG2 cell viability assay in 384 well format; assay type: toxicity, cell-based; design: dose 125 nL, time 70.5 hour; concentration not given beside the values; conditions: HepG2 cells, read-out: Inhibition
For each record, write down the corresponding cytotoxicity at 70.5 h.
One number for each entry, in %.

Please give cytotoxicity at 70.5 h, item by item, for the list that follows.
1. CC(Cn1cccn1)NCc1nc(-c2cccc(Cl)c2)no1 (stereo unspecified)
2. O=S(=O)(c1ccccc1)N1CCC2(CCCN2Cc2cccnc2)C1 (stereo unspecified)
3. O=C(c1nc(=O)[nH][nH]1)N1CCCN(CC2CCCCC2)CC1

[7.24, 10.9, -7.64]
